tested on: DLD-1 human colon carcinoma cells; assay: MTS cell viability assay, DLD-1 human colon carcinoma cells; assay type: cell-based; details: DLD-1, 4 h compound incubation, MTS, read-out: IC50 Values, Cancerous Cells, Colon DLD-1
observable: IC50 (nM)

{"columns": ["molecule", "IC50 [nM]"],
 "data": [
  ["COc1ccc(OCC(O)CN2CCC3(CC2)CSC2=C(O3)c3ccccc3C(=O)C2=O)cc1 (stereo not shown) [Compound 175]", 1420],
  ["O=C1C(=O)c2ccccc2C2=C1SCC1(CCN(CC(O)COc3ccc(Cl)cc3)CC1)O2 (stereo not shown) [Compound 176]", 2400]
]}

P = O=C1C(=O)c2ccccc2C2=C1SCC1(CCN(Cc3c(F)cccc3Cl)CC1)O2 [Compound 129]
Q = O=C1C(=O)c2ccccc2C2=C1SCC1(CCN(Cc3ccccc3)CC1)O2 [Compound 130]
IN: In the pair P and Q , the larger recorded IC50 belongs to which? Write down the label attached to your selection.
OUT: P

----------
Catalogue of compounds with associated melting point
Counter-ions that a name gives are not always drawn.

Here are 5 compounds together with their reported answers.
{"columns": ["compound", "observable", "obs.value"],
 "data": [
  ["O=C1C(=O)c2ccc(Cl)cc2C2=C1SCC1(CCN(C[C@@H](O)Cc3ccccc3)CC1)O2", "melting point", "92 to 96 °C"],
  ["COc1ccc2c(c1)C(=O)C(=O)C1=C2OC2(CCN(C[C@H](O)COc3ccc(Cl)cc3)CC2)CS1", "melting point", "189 to 191 °C"],
  ["O=C1C(=O)c2ccc(Cl)cc2C2=C1SCC1(CCN(C[C@H](O)Cc3ccccc3)CC1)O2", "melting point", "92 to 93 °C"],
  ["COc1ccc2c(c1)C(=O)C(=O)C1=C2OC2(CCN(C[C@H](O)Cc3ccccc3)CC2)CS1", "melting point", "145 to 147 °C"],
  ["O=C1C(=O)c2ccccc2C2=C1SCC1(CCN(c3cc(Cl)ncn3)CC1)O2", "melting point", "172 to 174 °C"]
]}

IN: Could you share which melting point value was measured for COc1ccc2c(c1)C1=C(SCC3(CCN(Cc4ccc(F)cc4)CC3)O1)C(=O)C2=O ?
OUT: 196 to 197 °C

IN: Look at this compound and give its reported melting point. CC(O)(Cc1ccccc1)CN1CCC2(CC1)CSC1=C(O2)c2ccccc2C(=O)C1=O (stereo not drawn)
OUT: 186 to 187 °C

IN: Using the record for O=C1C(=O)c2ccccc2C2=C1SCC1(CCC(NC(=O)c3cccc(C(F)(F)F)c3)CC1)O2 (stereo not drawn) (as salt: hydrochloride) , report its melting point.
OUT: 266 to 267 °C

IN: Any idea what melting point was measured for Cl.O=C1C(=O)c2ccccc2C2=C1SCC1(CCN(C(=O)C3CCNCC3)CC1)O2 ?
OUT: 94 to 100 °C

----------
tested on: DLD-1 human colon carcinoma cells; assay: MTS cell viability assay, DLD-1 human colon carcinoma cells; type: cell-based; settings: DLD-1, 4 h compound incubation, MTS, read-out: IC50 Values, Cancerous Cells, Colon DLD-1
pIC50: −log10 of the molar value.
observable: pIC50

Reference set (4 entries):
{"columns": ["compound", "measured.target", "obs.value"],
 "data": [
  ["O=C1C(=O)c2ccccc2C2=C1SCC1(CCN(S(=O)(=O)c3cccc(Cl)c3)CC1)O2", "DLD-1 human colon carcinoma cells", 5.05],
  ["O=C1C(=O)c2ccccc2C2=C1SCC1(CCN(CC(O)COCc3ccccc3)CC1)O2 (stereo not shown)", "DLD-1 human colon carcinoma cells", 5.87],
  ["O=C1C(=O)c2ccccc2C2=C1SCC1(CCN(CC(O)c3ccccc3)CC1)O2 (stereo not shown)", "DLD-1 human colon carcinoma cells", 5.87],
  ["CN(C)c1cccc(C(=O)N2CCC3(CC2)CSC2=C(O3)c3ccccc3C(=O)C2=O)c1", "DLD-1 human colon carcinoma cells", 5.28]
]}

A = O=C1C(=O)c2ccccc2C2=C1SCC1(CCN(CC(O)CC(F)(F)F)CC1)O2 (stereo not shown)
B = Cc1noc(C)c1C(=O)N1CCC2(CC1)CSC1=C(O2)c2ccccc2C(=O)C1=O
IN: Given A and B , report the one with the higher recorded pIC50. # respond with the chosen item's label
OUT: A

----------
tested on: DLD-1 human colon carcinoma cells; assay: MTS cell viability assay, DLD-1 human colon carcinoma cells; format: cell-based; conditions: DLD-1, 4 h compound incubation, MTS, read-out: IC50 Values, Cancerous Cells, Colon DLD-1
observable: IC50 (nM)

{"columns": ["compound", "unit.tag", "IC50"],
 "data": [
  ["O=C1C(=O)c2ccccc2C2=C1SCC1(CCN(C(=O)Oc3ccccc3)CC1)O2 [Compound 92]", "nM", 4010],
  ["CC(C)CN1CCC2(CC1)CSC1=C(O2)c2ccccc2C(=O)C1=O [Compound 126]", "nM", 3120],
  ["CC(C)(C)c1ccc(OC[C@@H](O)CN2CCC3(CC2)CSC2=C(O3)c3ccccc3C(=O)C2=O)cc1 [Compound 184]", "nM", 2580],
  ["CN(C)c1ccc(NC(=O)N2CCC3(CC2)CSC2=C(O3)c3ccccc3C(=O)C2=O)cc1 [Compound 88]", "nM", 1490]
]}

A = O=C1C(=O)c2ccccc2C2=C1SCC1(CCN(CCCC(F)(F)F)CC1)O2 [Compound 141]
B = O=C1C(=O)c2ccccc2C2=C1SCC1(CCN(CC(O)COc3ccccc3Cl)CC1)O2 (centres unmarked) [Compound 172]
C = O=C1C(=O)c2ccccc2C2=C1SCC1(CCN(C(=O)C3CCC3C(=O)O)CC1)O2 (centres unmarked) [Compound 235]
D = O=C1C(=O)c2ccccc2C2=C1SCC1(CCN(CC(O)CN3CCOCC3)CC1)O2 (centres unmarked) [Compound 166]
IN: Give the ascending ranking of the items by reported IC50. Reply format: the labels, ordered as requested.
OUT: B, A, D, C
(B: 1360 nM, A: 1950 nM, D: 3700 nM, C: 69600 nM)

----------
tested on: DLD-1 human colon carcinoma cells; assay: MTS cell viability assay, DLD-1 human colon carcinoma cells; assay type: cell-based; conditions: DLD-1, 4 h compound incubation, MTS, read-out: IC50 Values, Cancerous Cells, Colon DLD-1
pIC50: −log10 of the molar value.
observable: pIC50

a = O=C1C(=O)c2ccccc2C2=C1SCC1(CCN(C(=O)Oc3cccc(C(F)(F)F)c3)CC1)O2 [Compound 96]
b = Cc1cc(C(=O)N2CCC3(CC2)CSC2=C(O3)c3ccccc3C(=O)C2=O)n(C)n1 [Compound 42]
c = C=COC(=O)N1CCC2(CC1)CSC1=C(O2)c2ccccc2C(=O)C1=O [Compound 94]
IN: Could you please order the items by pIC50, going from the lowest number to the highest? Give the labels in the order requested.
OUT: a, b, c
(a: 4.50, b: 5.05, c: 5.62)

1 = O=C1C(=O)c2ccccc2C2=C1SCC1(CCN(C(=O)Nc3cccc(C(F)(F)F)c3)CC1)O2 [Compound 86]
2 = Cc1nn(-c2ccccc2)nc1C(=O)N1CCC2(CC1)CSC1=C(O2)c2ccccc2C(=O)C1=O [Compound 58]
3 = CC(c1ccccc1)N1CCC2(CC1)CSC1=C(O2)c2ccccc2C(=O)C1=O (stereo not drawn) [Compound 137]
4 = COc1ccc2c(c1)C1=C(SCC3(CCNCC3)O1)C(=O)C2=O [Compound 20]
5 = Cn1cnc(S(=O)(=O)N2CCC3(CC2)CSC2=C(O3)c3ccccc3C(=O)C2=O)c1 [Compound 79]
IN: Ordering criterion: pIC50; begin with the maximum. I'd appreciate it if you listed the labels in the requested order.
OUT: 1, 3, 5, 2, 4
(1: 5.83, 3: 5.39, 5: 5.08, 2: 4.86, 4: 4.31)

1 = O=C1C(=O)c2ccccc2C2=C1SCC1(CCN(S(=O)(=O)c3cccs3)CC1)O2 [Compound 78]
2 = O=C1C(=O)c2ccccc2C2=C1SCC1(CCN(C(=O)C(Cl)c3ccccc3)CC1)O2 (stereo not drawn) [Compound 50]
IN: Field: entry with larger pIC50 (options 1 / 2 ). Mark your selection by writing its label.
OUT: 2

1 = O=C1C(=O)c2ccccc2C2=C1SCC1(CCN(CC(O)COc3ccc(F)cc3)CC1)O2 (stereo not drawn) [Compound 164]
2 = COc1cccc(CN2CCC3(CC2)CSC2=C(O3)c3ccccc3C(=O)C2=O)c1 [Compound 121]
IN: Determine, for 1 and 2 , which has the greater value of pIC50. // return label of chosen record
OUT: 1
(1: 5.82, 2: 5.40)

a = O=C1C(=O)c2ccccc2C2=C1SCC1(CCN(C[C@H](O)COc3ccc(Cl)cc3)CC1)O2 [Compound 182]
b = O=C1C(=O)c2ccccc2C2=C1SCC1(CCN(C/C=C/c3ccccc3)CC1)O2 [Compound 139]
IN: For the pair a and b , which entry has the numerically smaller recorded pIC50? Answer by stating the label of the chosen item.
OUT: b

a = O=C1C(=O)c2ccccc2C2=C1SCC1(CCN(Cc3ccc(F)cc3)CC1)O2 [Compound 125]
b = O=C1C(=O)c2ccccc2C2=C1SCC1(CCN(C[C@@H](O)COc3ccc(Cl)cc3)CC1)O2 [Compound 183]
IN: // max by pIC50 over [ a , b ] Your answer should be the label attached to the chosen record.
OUT: b
(b: 5.98, a: 5.77)

1 = O=C1C(=O)c2ccccc2C2=C1SCC1(CCN(C(=O)CSc3ccccc3)CC1)O2 [Compound 48]
2 = CC(O)(CN1CCC2(CC1)CSC1=C(O2)c2ccccc2C(=O)C1=O)c1ccccc1 (stereo not drawn) [Compound 177]
IN: Which item exceeds the other in pIC50, 1 or 2 ? Kindly give the label for the entry you pick.
OUT: 1

1 = C=CCN1CCC2(CC1)CSC1=C(O2)c2ccccc2C(=O)C1=O [Compound 131]
2 = CCCCC(CC)COC(=O)N1CCC2(CC1)CSC1=C(O2)c2ccccc2C(=O)C1=O (stereo not drawn) [Compound 95]
3 = O=C1C(=O)c2ccccc2C2=C1SCC1(CCN(Cc3ccc(F)c(Cl)c3)CC1)O2 [Compound 142]
IN: Sort ascending by pIC50. Answer format: the labels, in the requested order.
OUT: 2, 3, 1
(2: 4.96, 3: 5.37, 1: 5.84)
